- target.desc: Signal transducer and activator of transcription 5B (Homo sapiens, UniProt P51692)
- Sequence (P51692 whole entry, the tested form may be a part): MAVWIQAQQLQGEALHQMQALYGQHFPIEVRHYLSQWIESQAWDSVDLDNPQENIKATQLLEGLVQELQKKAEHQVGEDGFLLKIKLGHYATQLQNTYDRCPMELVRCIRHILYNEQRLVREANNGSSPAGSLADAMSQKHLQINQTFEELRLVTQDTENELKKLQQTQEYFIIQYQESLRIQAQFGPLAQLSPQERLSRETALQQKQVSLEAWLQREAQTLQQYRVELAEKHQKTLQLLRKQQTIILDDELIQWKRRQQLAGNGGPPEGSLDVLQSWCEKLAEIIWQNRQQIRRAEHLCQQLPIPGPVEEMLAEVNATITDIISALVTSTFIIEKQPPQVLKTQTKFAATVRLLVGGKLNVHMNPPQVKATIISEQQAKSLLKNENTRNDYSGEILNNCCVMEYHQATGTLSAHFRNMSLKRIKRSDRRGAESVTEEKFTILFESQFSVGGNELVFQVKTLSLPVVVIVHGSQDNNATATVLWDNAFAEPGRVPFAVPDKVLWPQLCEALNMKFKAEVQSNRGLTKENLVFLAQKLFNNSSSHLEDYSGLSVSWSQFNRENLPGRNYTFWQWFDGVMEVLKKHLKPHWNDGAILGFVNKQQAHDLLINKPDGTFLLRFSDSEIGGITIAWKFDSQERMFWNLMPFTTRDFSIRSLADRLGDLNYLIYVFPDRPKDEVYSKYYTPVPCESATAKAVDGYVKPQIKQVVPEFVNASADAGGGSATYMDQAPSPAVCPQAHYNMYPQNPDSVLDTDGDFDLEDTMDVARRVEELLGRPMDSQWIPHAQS
- test.description: Displacement of 5-carboxyfluorescein-GY(PO3H2)LVLDKW from STAT5B SH2 domain (unknown origin) pretreated for 1 hr followed by fluorescent tracer addition after 1 hr by fluorescence polarization assay
pIC50: −log10 of the molar value.

entry.smiles	pIC50
O=C(COc1ccc2cc(C(=O)Nc3cccc(Br)c3)ccc2c1)NCc1ccc(OP(=O)(O)O)c(OP(=O)(O)O)c1	6.54
O=C(COc1ccc2cc(C(=O)Nc3ccc(F)cc3)ccc2c1)NCc1ccc(OP(=O)(O)O)c(OP(=O)(O)O)c1	6.66
O=C(COc1ccc(C(=O)Nc2ccccc2)cc1)NCc1ccc(OP(=O)(O)O)c(OP(=O)(O)O)c1	6.55
O=C(COc1ccc(C(=O)Nc2ccc(Br)cc2)cc1)NCc1ccc(OP(=O)(O)O)c(OP(=O)(O)O)c1	6.41
O=C(COc1ccc(C(=O)Nc2cccc(Cl)c2)cc1)NCc1ccc(OP(=O)(O)O)c(OP(=O)(O)O)c1	6.34
O=C(COc1ccc2cc(C(=O)Nc3cccc(Cl)c3)ccc2c1)NCc1ccc(OP(=O)(O)O)c(OP(=O)(O)O)c1	6.59
O=C(COc1ccc(C(=O)Nc2ccc(Cl)cc2)cc1)NCc1ccc(OP(=O)(O)O)c(OP(=O)(O)O)c1	6.48

* * *

- Species on record: Homo sapiens
- test.description: Selectivity factor, ratio of IC50 for displacement of 5-carboxyfluorescein-GY(PO3H2)LVLDKW from STAT5A SH2 domain (unknown origin) to IC50 for displacement of 5-carboxyfluorescein-GY(PO3H2)LVLDKW from STAT5B SH2 domain (unknown origin)

entry.smiles	Ratio IC50
O=C(COc1ccc2cc(C(=O)Nc3ccc(Cl)cc3)ccc2c1)NCc1ccc(OP(=O)(O)O)c(OP(=O)(O)O)c1	33
O=C(COc1ccc2cc(C(=O)Nc3ccc(F)cc3)ccc2c1)NCc1ccc(OP(=O)(O)O)c(OP(=O)(O)O)c1	33
O=C(COc1ccc2cc(C(=O)Nc3cccc(F)c3)ccc2c1)NCc1ccc(OP(=O)(O)O)c(OP(=O)(O)O)c1	36
O=C(COc1ccc(C(=O)Nc2ccc(Cl)cc2)cc1)NCc1ccc(OP(=O)(O)O)c(OP(=O)(O)O)c1	22
O=C(COc1ccc(C(=O)Nc2cccc(Br)c2)cc1)NCc1ccc(OP(=O)(O)O)c(OP(=O)(O)O)c1	16
O=C(COc1ccc2cc(C(=O)Nc3ccc(Br)cc3)ccc2c1)NCc1ccc(OP(=O)(O)O)c(OP(=O)(O)O)c1	32
O=C(COc1ccc(C(=O)Nc2ccccc2)cc1)NCc1ccc(OP(=O)(O)O)c(OP(=O)(O)O)c1	35
O=C(COc1ccc(C(=O)Nc2cccc(Cl)c2)cc1)NCc1ccc(OP(=O)(O)O)c(OP(=O)(O)O)c1	20

* * *

- target.desc: Signal transducer and activator of transcription 5A (Homo sapiens, UniProt P42229)
- Sequence (P42229 whole entry): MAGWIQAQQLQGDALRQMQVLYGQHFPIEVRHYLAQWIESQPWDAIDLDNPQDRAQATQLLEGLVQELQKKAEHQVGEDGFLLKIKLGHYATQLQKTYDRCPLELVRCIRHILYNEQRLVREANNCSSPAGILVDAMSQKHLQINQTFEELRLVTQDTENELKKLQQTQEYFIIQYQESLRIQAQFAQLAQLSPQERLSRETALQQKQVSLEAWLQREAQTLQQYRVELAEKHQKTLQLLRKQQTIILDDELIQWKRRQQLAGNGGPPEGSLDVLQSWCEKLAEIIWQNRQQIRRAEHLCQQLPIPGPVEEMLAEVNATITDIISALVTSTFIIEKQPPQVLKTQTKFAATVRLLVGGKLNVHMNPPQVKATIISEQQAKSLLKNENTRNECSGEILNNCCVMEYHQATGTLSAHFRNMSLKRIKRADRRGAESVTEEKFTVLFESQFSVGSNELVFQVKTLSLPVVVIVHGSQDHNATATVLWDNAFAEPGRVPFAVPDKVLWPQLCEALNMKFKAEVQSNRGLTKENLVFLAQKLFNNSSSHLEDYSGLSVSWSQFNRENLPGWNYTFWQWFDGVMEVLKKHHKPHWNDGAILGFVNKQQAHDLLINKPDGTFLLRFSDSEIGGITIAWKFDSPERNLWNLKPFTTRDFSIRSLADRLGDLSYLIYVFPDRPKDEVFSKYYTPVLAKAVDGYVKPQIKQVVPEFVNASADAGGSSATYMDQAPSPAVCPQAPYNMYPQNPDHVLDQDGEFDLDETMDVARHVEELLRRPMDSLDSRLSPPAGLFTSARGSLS
measured.metric: IC50 (µM)

entry.smiles	measured.metric	measured
O=C(COc1ccc2cc(C(=O)Nc3cccc(Br)c3)ccc2c1)NCc1ccc(OP(=O)(O)O)c(OP(=O)(O)O)c1	IC50	10.6
O=C(COc1ccc(C(=O)Nc2ccc(F)cc2)cc1)NCc1ccc(OP(=O)(O)O)c(OP(=O)(O)O)c1	IC50	8.3
O=C(COc1ccc(C(=O)Nc2ccc(Br)cc2)cc1)NCc1ccc(OP(=O)(O)O)c(OP(=O)(O)O)c1	IC50	8.6
O=C(COc1ccc(C(=O)Nc2ccccc2)cc1)NCc1ccc(OP(=O)(O)O)c(OP(=O)(O)O)c1	IC50	9.7
O=C(COc1ccc2cc(C(=O)Nc3cccc(F)c3)ccc2c1)NCc1ccc(OP(=O)(O)O)c(OP(=O)(O)O)c1	IC50	8.4
O=C(COc1ccc2cc(C(=O)Nc3ccc(Cl)cc3)ccc2c1)NCc1ccc(OP(=O)(O)O)c(OP(=O)(O)O)c1	IC50	8.9
O=C(COc1ccc2cc(C(=O)Nc3ccc(Br)cc3)ccc2c1)NCc1ccc(OP(=O)(O)O)c(OP(=O)(O)O)c1	IC50	7.6
O=C(COc1ccc(C(=O)Nc2cccc(Cl)c2)cc1)NCc1ccc(OP(=O)(O)O)c(OP(=O)(O)O)c1	IC50	9.1
O=C(COc1ccc(C(=O)Nc2cccc(F)c2)cc1)NCc1ccc(OP(=O)(O)O)c(OP(=O)(O)O)c1	IC50	11.9

* * *

- Species: Homo sapiens
- test.description: Selectivity factor, ratio of IC50 for displacement of 5-carboxyfluorescein-GY(PO3H2)LVLDKW from STAT5A SH2 domain (unknown origin) to IC50 for displacement of 5-carboxyfluorescein-GY(PO3H2)LVLDKW from STAT5B SH2 domain (unknown origin)
Here, each record is paired with measured Ratio IC50 data.

entry.smiles	Ratio IC50
O=C(COc1ccc(C(=O)Nc2cccc(F)c2)cc1)NCc1ccc(OP(=O)(O)O)c(OP(=O)(O)O)c1	19
O=C(COc1ccc2cc(C(=O)Nc3cccc(Cl)c3)ccc2c1)NCc1ccc(OP(=O)(O)O)c(OP(=O)(O)O)c1	28
O=C(COc1ccc(C(=O)Nc2ccc(Br)cc2)cc1)NCc1ccc(OP(=O)(O)O)c(OP(=O)(O)O)c1	22
O=C(COc1ccc2cc(C(=O)Nc3cccc(Br)c3)ccc2c1)NCc1ccc(OP(=O)(O)O)c(OP(=O)(O)O)c1	37
O=C(COc1ccc(C(=O)Nc2ccc(F)cc2)cc1)NCc1ccc(OP(=O)(O)O)c(OP(=O)(O)O)c1	24
